The reported numbers originate from PubChem BioAssay (NCI).

Test system: M14 melanoma
Experiment: NCI tumour cell line growth inhibition, 48 h
The entries below come with measured TGI values attached.
Response body: numeric value in µM, unit text excluded.

Use the examples below as a reference point.
[
  {
    "COMPOUND": "Cc1c(N2CCN(C)CC2)nc2ccc(Cl)cc2c1-c1ccccc1",
    "QUANTITY_NAME": "TGI",
    "UNIT_ABBREV": "µM",
    "READOUT_VALUE": 34.9
  },
  {
    "COMPOUND": "CC(C)([NH-])CO.CC(C)([NH-])CO.[Cl][Cd][Cl]",
    "QUANTITY_NAME": "TGI",
    "UNIT_ABBREV": "µM",
    "READOUT_VALUE": 33.4
  }
]

Report TGI for `COc1cc(C(=O)N2CCN(c3ncnc4ccccc34)CC2)c(N)cc1OCc1ccccc1` 28.6

Indicate its recorded TGI; the compound in question is COc1cc(C2c3cc4c(cc3OC(NNS(=O)(=O)c3ccc(C)cc3)C2C)OCO4)cc(OC)c1O (centres undefined) 58.2
